target: Prostaglandin G/H synthase 2 (Homo sapiens, UniProt P35354); experiment: Inhibition of COX-2 (unknown origin) by colorimetric assay
Sequence (P35354 whole entry): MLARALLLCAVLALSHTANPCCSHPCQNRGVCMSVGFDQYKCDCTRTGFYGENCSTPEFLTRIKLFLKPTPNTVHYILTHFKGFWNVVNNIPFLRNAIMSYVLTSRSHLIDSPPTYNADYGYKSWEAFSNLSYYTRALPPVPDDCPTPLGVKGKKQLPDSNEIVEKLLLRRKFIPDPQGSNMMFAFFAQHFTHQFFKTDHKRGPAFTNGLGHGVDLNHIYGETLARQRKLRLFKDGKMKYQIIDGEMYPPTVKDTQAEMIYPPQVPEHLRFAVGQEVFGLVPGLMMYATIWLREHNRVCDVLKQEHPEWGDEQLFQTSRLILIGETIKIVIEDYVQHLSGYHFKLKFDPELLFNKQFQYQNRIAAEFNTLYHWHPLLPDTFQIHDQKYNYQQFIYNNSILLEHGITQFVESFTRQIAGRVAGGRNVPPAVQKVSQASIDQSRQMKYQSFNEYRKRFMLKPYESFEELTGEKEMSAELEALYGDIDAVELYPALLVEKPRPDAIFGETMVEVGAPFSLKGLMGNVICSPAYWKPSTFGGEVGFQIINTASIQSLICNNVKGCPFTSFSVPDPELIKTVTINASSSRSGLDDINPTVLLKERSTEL
# IC50 annotations

>  <smiles structure>
C=CCn1c(-c2ccc(C)cc2)cs/c1=N\NC(=O)c1cc(NCCCC)c(Oc2ccccc2)c(S(N)(=O)=O)c1

>  <IC50>
1520 nM

$$$$
>  <smiles structure>
CCCCNc1cc(C(=O)N/N=c2\scc(-c3ccc(C)cc3)n2-c2ccc(Br)cc2)cc(S(N)(=O)=O)c1Oc1ccccc1

>  <IC50>
1520 nM

$$$$
>  <smiles structure>
CCCCNc1cc(C(=O)N/N=c2\scc(-c3ccc(Cl)cc3)n2-c2ccc(Br)cc2)cc(S(N)(=O)=O)c1Oc1ccccc1

>  <IC50>
1520 nM

$$$$
>  <smiles structure>
CCCCNc1cc(C(=O)N/N=c2\scc(-c3ccc(OC)cc3)n2-c2ccccc2)cc(S(N)(=O)=O)c1Oc1ccccc1

>  <IC50>
1520 nM

$$$$
>  <smiles structure>
C=CCc1ccc(-n2c(-c3cc(NCCCC)c(Oc4ccccc4)c(S(N)(=O)=O)c3)n[nH]c2=S)cc1

>  <IC50>
4590 nM

$$$$
>  <smiles structure>
CCCCNc1cc(C(=O)N/N=c2\scc(-c3ccc(OC)cc3)n2-c2ccc(Br)cc2)cc(S(N)(=O)=O)c1Oc1ccccc1

>  <IC50>
1520 nM

$$$$
>  <smiles structure>
CCCCNc1cc(-c2n[nH]c(=S)n2-c2ccc(Br)cc2)cc(S(N)(=O)=O)c1Oc1ccccc1

>  <IC50>
170 nM

$$$$
>  <smiles structure>
CCCCNc1cc(C(=O)n2nc(C)cc2C)cc(S(N)(=O)=O)c1Oc1ccccc1

>  <IC50>
4750 nM

$$$$
>  <smiles structure>
CCCCNc1cc(-c2n[nH]c(=S)n2-c2ccccc2)cc(S(N)(=O)=O)c1Oc1ccccc1

>  <IC50>
280 nM

$$$$
>  <smiles structure>
CCCCNc1cc(C(=O)N2N=C(C)CC2=O)cc(S(N)(=O)=O)c1Oc1ccccc1

>  <IC50>
5110 nM

$$$$

====

biological target: COX-1/COX-2 (Homo sapiens) (UniProt P35354+P23219); experiment: Selectivity index, ratio of IC50 for inhibition of COX-1 (unknown origin) to IC50 for inhibition of COX-2 (unknown origin); type: protein assay
# Ratio IC50 annotations
readout label: Ratio IC50

>  <molecule>
O=Cc1cn(-c2ccc(Br)cc2)nc1-c1ccc(Br)cc1

>  <assay value>
0.008

$$$$
>  <molecule>
C/C(=N\NC(=O)c1nnn(-c2ccc(S(N)(=O)=O)cc2)c1C)c1cc2ccccc2o1

>  <assay value>
1.95

$$$$
>  <molecule>
NS(=O)(=O)c1ccc(C(=O)OCCn2cc(-c3ccc(C(F)(F)F)cc3)nn2)cc1

>  <assay value>
0.008

$$$$
>  <molecule>
Cc1c(C(=O)NNC(=S)Nc2ccccc2)nnn1-c1ccc(S(N)(=O)=O)cc1

>  <assay value>
1.95

$$$$
>  <molecule>
Cc1c(C(=O)/C=C/c2ccccc2)nnn1-c1ccc(S(N)(=O)=O)cc1

>  <assay value>
1.95

$$$$
>  <molecule>
CS(=O)(=O)c1ccc(-n2cc(-c3ccc(C(F)(F)F)cc3)nn2)cc1

>  <assay value>
0.008

$$$$
>  <molecule>
CS(=O)(=O)c1ccc(C(=O)OCCn2cc(-c3ccc(C(F)(F)F)cc3)nn2)cc1

>  <assay value>
0.008

$$$$
>  <molecule>
C/C(=N\NC(=O)c1nnn(-c2ccc(S(N)(=O)=O)cc2)c1C)c1nnn(-c2ccc(S(N)(=O)=O)cc2)c1C

>  <assay value>
1.95

$$$$
>  <molecule>
CC(=O)N1N=C(c2nnn(-c3ccc(S(N)(=O)=O)cc3)c2C)CC1c1ccccc1 (configuration not stated)

>  <assay value>
1.95

$$$$
>  <molecule>
CS(=O)(=O)c1ccc(-c2nn(-c3ccc(S(N)(=O)=O)cc3)cc2C=O)cc1

>  <assay value>
0.008

$$$$
>  <molecule>
Cc1c(C(=O)NN)nnn1-c1ccc(S(N)(=O)=O)cc1

>  <assay value>
1.95

$$$$
>  <molecule>
CCC(=O)c1nnn(-c2ccc(S(N)(=O)=O)cc2)c1C

>  <assay value>
1.95

$$$$
